measurement_target: human GLP-1 receptor (human, UniProt P43220 24-463)
assay_comment: cell-based or functional assay
Bridge positions count the residues as written; N and C are the ends. Square brackets hold non-standard residues; d marks the D form. Ends that are not written are not given here. * marks the point of attachment. Acetyl(2-(4-imidazolyl)) = O=C(Cc1c[nH]cn1)*; Aib = CC(C)(N)C(=O)O
// NB: equality with 4% counts as Condition not met; only In vitro activity compared to native peptide (%) vs GLP-1 strictly below is Condition met

Solved cases (4 shown):
In [3]: df
Out[3]:
                                     binder     category_label
0  {Acetyl(2-(4-imidazolyl))}-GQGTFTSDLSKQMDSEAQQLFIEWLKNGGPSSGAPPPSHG [Triple agonist of SEQ ID NO: 16]      Condition met
1  {Acetyl(2-(4-imidazolyl))}-[Aib]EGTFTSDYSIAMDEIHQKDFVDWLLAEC (bridge 15-19) [Triple agonist of SEQ ID NO: 84]  Condition not met
2  {Acetyl(2-(4-imidazolyl))}-[Aib]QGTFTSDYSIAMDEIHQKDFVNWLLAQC (bridge 15-19) [Triple agonist of SEQ ID NO: 85]  Condition not met
3  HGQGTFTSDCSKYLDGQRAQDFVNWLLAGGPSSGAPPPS [Triple agonist of SEQ ID NO: 48]      Condition met

Please turn your attention to the following entry.
Does the reported In vitro activity compared to native peptide (%) vs GLP-1 of the following binder sit strictly below 4%? H[Aib]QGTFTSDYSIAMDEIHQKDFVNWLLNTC (bridge 16-20) [Triple agonist of SEQ ID NO: 57] Condition not met
